Give measured GI50 for each item. Keep answers brief.
- Tested on: LXFL 529
- Run Description: NCI tumour cell line growth inhibition, 48 h
Activity calls are given as the source filed them. Cut-off read from the data, not from the text of the source: active = GI50 up to about 1.1 µM and inactive = higher.

Please review the following examples before continuing.
{"columns": ["Compound", "System Tested", "GI50"],
 "data": [
  ["CC1=C[P+](Cc2ccccc2)(c2ccccc2)CC1 (centres undefined)", "LXFL 529", "45.4 µM (inactive)"],
  ["CCC(=O)NCC1(c2c[nH]c3ccccc23)SCCS1", "LXFL 529", "> 100 µM (inactive)"],
  ["O=C(CC1=Nc2nnc(CCCCCCCc3nnc4n3C(=O)C(CC(=O)c3ccc5ccccc5c3)=N4)n2C1=O)c1ccc2ccccc2c1", "LXFL 529", "> 100 µM (inactive)"]
]}

List reported GI50 for each of these compounds:
1. CSc1c([S+](C)[O-])[nH]c2cc(Br)cc(Br)c12 (centres undefined)
2. Cc1cc(Br)cc(C)c1NC(=O)C(=O)C(C(=O)c1ccncc1)C1OC(=O)c2ccccc21 (centres undefined)
3. Cc1cn(C2CC(N(O)Cc3ccccc3)C(CO)O2)c(=O)[nH]c1=O (centres undefined)
4. O=C(NO)C12C3C4C1C1C2C3C41C(=O)NO (centres undefined)

21.1 µM (inactive)
> 100 µM (inactive)
> 100 µM (inactive)
37.2 µM (inactive)

List reported GI50 for each of these compounds:
1. O=C(Cc1csc(-c2nc(CC(=O)NNc3ccccc3)cs2)n1)NNc1ccccc1
2. O=C1/C(=N\O)c2ccccc2S1(=O)=O

1: 91.2 µM (inactive); 2: 69.2 µM (inactive)

----------
- Tested on: A498
- Run Description: NCI tumour cell line growth inhibition, 48 h
The source made the active and inactive calls. Cut-off read from the data, not from the text of the source: active = GI50 up to about 1.1 µM and inactive = higher.
Give measured GI50 for each item. Keep answers brief.

Please review the following examples before continuing.
{"columns": ["Compound", "GI50"],
 "data": [
  ["CC(NNC(=O)c1ccncc1)c1ccccc1 (stereo not given)", "> 100 µM (inactive)"],
  ["Cc1cc(O)c2c(c1)C(=O)c1c(c(O)cc(O)c1-c1c(O)cc(O)c3c1C(=O)c1cc(C)cc(O)c1C3=O)C2=O", "14.4 µM (inactive)"],
  ["C/C(=N/NC(=O)CC(=O)N(C(=O)c1ccccc1Cl)c1ccc(C)cc1)c1cc2ccccc2oc1=O", "> 100 µM (inactive)"]
]}

List reported GI50 for each of these compounds:
1. Nc1ccc(C2NC(=O)Cc3c2ccc2ccccc32)cc1 (stereo not given)
2. CCc1[nH]c(=O)nc(N)c1-c1ccc(N2CCCCC2)c([N+](=O)[O-])c1

1: > 100 µM (inactive); 2: > 100 µM (inactive)

----------
- Tested on: M14
- Run Description: NCI tumour cell line growth inhibition, 48 h
The source made the active and inactive calls. Rule as the data show it: active = GI50 up to about 1.1 µM and inactive = higher.
Field 'call' accepts 1.0 (active), 0.0 (inactive)

Examples from the recorded data:
{"columns": ["Compound", "Cat"],
 "data": [
  ["O=C1CC2C(=O)N(Cc3ccccc3)C1C(S(=O)(=O)c1ccccc1)C2S(=O)(=O)c1ccccc1 (configuration not stated)", 0.0],
  ["COc1cc(C=O)cc(/C=N/c2ccc(Br)cc2)c1O", 0.0],
  ["CC(=O)O[C@H]1C(=O)[C@]2(C)[C@@H](OC(=O)OCCC(O)CO)C[C@H]3OC[C@@]3(OC(C)=O)[C@H]2[C@H](OC(=O)c2ccccc2)[C@]2(O)C[C@H](OC(=O)[C@H](O)[C@@H](NC(=O)c3ccccc3)c3ccccc3)C(C)=C1C2(C)C (some centres not stated)", 1.0],
  ["CC(=O)Nc1ccc(NS(=O)(=O)c2ccc3nc(C)n(NS(=O)(=O)c4ccc(NC(C)=O)cc4)c(=O)c3c2)cc1", 0.0],
  ["CCOC(=O)Nc1ccc(S(=O)(=O)I)cc1.CCOC(=O)Nc1ccc(S(=O)(=O)I)cc1.CN(C=O)C1=C(N(C)C=O)C(N(C)C=O)=C(N(C)C=O)C(=O)C1=O", 0.0],
  ["O=S(=O)(O)c1cc(O)c(/N=N/c2ccc3ccccc3c2O)c2ccccc12", 0.0]
]}

Query compound follows.
Dear all, I need the recorded test outcome for CC1=CC(=O)c2cccc(NC3=NCCO3)c21 , thank you.
0.0

----------
- Test system: RPMI-8226
- Run Description: NCI tumour cell line growth inhibition, 48 h
The source made the active and inactive calls. Cut-off read from the data, not from the text of the source: active = GI50 up to about 1.1 µM and inactive = higher.
Field 'call' accepts active, inactive

Examples from the recorded data:
{"columns": ["Compound", "Cat"],
 "data": [
  ["N=C1/C(=C/c2ccc(F)cc2)C(=O)N=C2SC=NN12", "inactive"],
  ["NCCCCN(CCCN)C(=O)c1ccccc1", "inactive"],
  ["CC(=O)O[C@H]1C(=O)[C@]2(C)[C@@H](OC(=O)OCCC(O)CO)C[C@H]3OC[C@@]3(OC(C)=O)[C@H]2[C@H](OC(=O)c2ccccc2)[C@]2(O)C[C@H](OC(=O)[C@H](O)[C@@H](NC(=O)c3ccccc3)c3ccccc3)C(C)=C1C2(C)C (stereo partly drawn)", "active"]
]}

Dear all, I need the recorded test outcome for COc1c(C2=NC(C(C)C)CO2)ccc2ccccc12 (stereo not drawn) , thank you.
inactive

Dear all, I need the recorded test outcome for Nc1ccn(C2CC(O)C(COP(=O)(S)OC3CC(n4ccc(N)nc4=O)OC3CO)O2)c(=O)n1 (stereo not drawn) , thank you.
inactive

----------
- Test system: SN12C
- Run Description: NCI tumour cell line growth inhibition, 48 h
Active and inactive are the calls of the source. Rule as the data show it: active = GI50 up to about 1.1 µM and inactive = higher.
Assay Metric: GI50

{"columns": ["Compound", "Result"],
 "data": [
  ["COCC1C(=O)c2cc3c(cc2C12C=CC1(C=C2)OCCO1)OCO3 (centres undefined)", "10.9 µM (inactive)"]
]}

List reported GI50 for each of these compounds:
1. COCN1COCN(C)C1=O
2. COc1cc(C2c3cc4c(cc3OC(Nc3ccccc3)C2C)OCO4)cc(OC)c1OC (centres undefined)
3. O=S(=O)(N/N=C/c1ccc(Cl)c(Cl)c1)c1ccccc1
4. CCOC(=O)Cc1csc(NC(NC(=O)OCC)(C(=O)OCC)C(F)(F)F)n1 (centres undefined)

["> 100 µM (inactive)", "0.659 µM (active)", "37.7 µM (inactive)", "> 100 µM (inactive)"]

----------
- Test system: SK-MEL-28
- Run Description: NCI tumour cell line growth inhibition, 48 h
Activity calls are given as the source filed them. No stated cut-off is given here; in the data, active = GI50 up to about 1.1 µM and inactive = higher.
Give measured GI50 for each item. Keep answers brief.

{"columns": ["Compound", "GI50"],
 "data": [
  ["COc1cccc(N2C(=O)[C@H]3[C@H]4CC(C(C)(C)C)CC[C@H]4c4c([nH]c5ccccc45)[C@H]3C2=O)c1 (stereo partly drawn)", "18.7 µM (inactive)"]
]}

List reported GI50 for each of these compounds:
1. S=C1NCCN1C(=S)Nc1ccccc1
2. CCN1CCC(O)(c2ccc(Oc3ccc(C)cc3)cc2)C(C(=O)c2ccc(Oc3ccc(C)cc3)cc2)C1 (stereo not drawn)
3. Cc1nc2ccc(F)cc2c2c1CCN2c1ccccc1

["56.2 µM (inactive)", "11.2 µM (inactive)", "16.2 µM (inactive)"]

List reported GI50 for each of these compounds:
1. CCCCS(=O)(=O)Nc1ccc(Nc2c3ccccc3nc3ccccc23)c(OC)c1
2. O=S(=O)(Nc1ccccc1)c1ccc(-c2c3nc(c(-c4ccc(S(=O)(=O)Nc5ccccc5)cc4)c4ccc([nH]4)c(-c4ccc(S(=O)(=O)Nc5ccccc5)cc4)c4nc(c(-c5ccc(S(=O)(=O)Nc6ccccc6)cc5)c5ccc2[nH]5)C=C4)C=C3)cc1
3. Cc1cc(C)c(C(=O)c2nnc3ccccc3c2N)c(C)c1
4. CCCCCCOc1ccc(C(=O)N(C)O)cc1
5. COc1cc(C=O)cc(/C=N/c2ccc(Br)cc2)c1O

1: 5.74 µM (inactive); 2: > 10 µM (inactive); 3: 17 µM (inactive); 4: 40.7 µM (inactive); 5: 6.71 µM (inactive)

List reported GI50 for each of these compounds:
1. C/C(=N/NC(=O)CC(=O)N(C(=O)c1ccccc1Cl)c1ccc(C)cc1)c1cc2ccccc2oc1=O
2. Cc1cc(O)nc(NN2C(Cl)C(=O)C2c2ccc(Cl)cc2)n1 (stereo not drawn)
3. O/N=C1\Nc2ccccc2OCc2cc(Br)c(Br)cc2COc2ccccc2N\C1=N/O
4. CC(C)C(=O)OCN(C)c1nc(N(C)COC(=O)C(C)C)nc(N(C)COC(=O)C(C)C)n1

1: > 100 µM (inactive); 2: 18.2 µM (inactive); 3: 22.6 µM (inactive); 4: 19.8 µM (inactive)

List reported GI50 for each of these compounds:
1. COCN1COCN(C)C1=O
2. C/C(=N\NC(=O)c1ccncc1)c1ccc2ccccc2c1O
3. CCn1c(=O)c2c3cc(OC(C)=O)ccc3oc2c2ccc(OC(C)=O)cc21

1: > 100 µM (inactive); 2: 17.2 µM (inactive); 3: 49 µM (inactive)

List reported GI50 for each of these compounds:
1. N=C(N)SCCc1ccncc1
2. COc1cccc(C2c3cc4c(cc3OC(NNC(N)=O)C2C)OCO4)c1O (stereo not drawn)
3. CSc1c([S+](C)[O-])[nH]c2cc(Br)cc(Br)c12 (stereo not drawn)

["> 100 µM (inactive)", "1.99 µM (inactive)", "20.7 µM (inactive)"]

List reported GI50 for each of these compounds:
1. O=C(O/C=C\OC1CCCC1(c1ccccc1)c1ccccc1)c1ccccc1 (stereo not drawn)
2. Cc1ccc(C(=O)N/N=C2/C(=O)c3c4ccccc4cc4cccc2c34)cc1
3. CC(=O)NC1CC2Oc3ccc(C)cc3C(C)(O2)C1O (stereo not drawn)
4. CN(C)Cc1cc(C(=O)O)cc(CN(C)C)c1O

1. 5.71 µM (inactive)
2. 17.7 µM (inactive)
3. > 100 µM (inactive)
4. > 100 µM (inactive)

Just for reference, ChEMBL document CHEMBL1201862 is where these values come from.
